# Tested on: HIV-1
# test_description: HIV-1 reverse transcriptase assay in infected CEM cells
# Type: cell-based, strain IIIB of HIV-1
# settings: Example 26; high multiplicity of infection (moi); listed as R-1 (B = 2-amino-6-methoxy-purine), Example 22; read-out: HIV-1 IC50, reverse transcriptase assay
pIC50: −log10 of the molar value.
measured_parameter: pIC50

Given item COc1nc(N)nc2c1ncn2C=C1CC1CO (stereo not shown) , the value recorded as its pIC50 is < 4.00

###

# Test system: HIV-1
# test_description: HIV-1 reverse transcriptase assay in infected CEM cells
# Format: cell-based, strain IIIB of HIV-1
# settings: Example 26; high multiplicity of infection (moi); read-out: HIV-1 IC50, reverse transcriptase assay
pIC50: −log10 of the molar value.
For each of the compounds below, state its pIC50.

Below are worked cases with known answers.
Nc1nc(Cl)c2ncn(C=C3CC3CO)c2n1 (centres unmarked) [S-1 (B = 2-amino-6-chloropurine), Example 22]    < 4.00
Nc1ncnc2c1ncn2/C=C1/C[C@H]1CO [R-1 (B = adenine), Example 23, (R)-(−)-Synadenol]    5.15
COc1nc(N)nc2c1ncn2C=C1CC1CO (centres unmarked)    < 4.00

Would you be so kind as to report pIC50 for each listed record?
1. Nc1nc2c(ncn2C=C2CC2CO)c(=O)[nH]1 (centres unmarked) [S-1 (B = guanine), Example 22]
2. Nc1nc(Cl)c2ncn(C=C3CC3CO)c2n1 (centres unmarked) [R-1 (B = 2-amino-6-chloropurine), Example 22]
3. Nc1nc(NC2CC2)c2ncn(C=C3CC3CO)c2n1 (centres unmarked) [S-1 (B = 2-aminopurine-6-cyclo-propylaminopurine), Example 2]
4. Nc1nc(N)c2ncn(C=C3CC3CO)c2n1 (centres unmarked) [R-1 (B = 2,6-diaminopurine), Example 22]
5. [N-]=[N+]=Nc1nc(N)nc2c1ncn2C=C1CC1CO (centres unmarked)

["< 4.00", "< 4.00", 4.19, "< 4.00", "< 4.00"]

###

# Test system: HFF cells
# test_description: Cytotoxicity in stationary HFF cells, microscopic inspection
# Assay type: cell-based, human
# Description: Cells and viruses. The routine growth and passage of KB cells was performed in monolayer cultures using minimal essential medium (MEM) with either Hanks salts [MEM(H)] or Earle salts [MEM(E)] supplemented with 10% calf serum. […] Cytotoxicity assays. […] (i) Cytotoxicity produced in stationary HFF cells and in growing CEM cells was determined by microscopic inspection of cells used in plaque and RT assays which were not affected by the virus. […]
Provide the reported IC50 of each item.

As a guide, the following entries are already answered.
Nc1nc(NC2CC2)c2ncn(C=C3CC3CO)c2n1 (stereo not shown) [S-1 (B = 2-aminopurine-6-cyclo-propylaminopurine), Example 2]    > 100 µM
Nc1nc(Cl)c2ncn(C=C3CC3CO)c2n1 (stereo not shown) [R-1 (B = 2-amino-6-chloropurine), Example 22]    32 µM

Each compound below has a recorded value; state its IC50.
1. Nc1ncnc2c1ncn2/C=C1/C[C@H]1CO [R-1 (B = adenine), Example 23, (R)-(−)-Synadenol]
2. Nc1nc(NC2CC2)c2ncn(C=C3CC3CO)c2n1 (stereo not shown) [R-1 (B = 2-aminopurine-6-cyclo-propylaminopurine), Example 2]

1. > 100 µM
2. > 100 µM
